Could you please report measured Ki for the items listed next?
TEST_SYSTEM: NPP1 (Homo sapiens, UniProt P22413)
Sequence (P22413 whole entry): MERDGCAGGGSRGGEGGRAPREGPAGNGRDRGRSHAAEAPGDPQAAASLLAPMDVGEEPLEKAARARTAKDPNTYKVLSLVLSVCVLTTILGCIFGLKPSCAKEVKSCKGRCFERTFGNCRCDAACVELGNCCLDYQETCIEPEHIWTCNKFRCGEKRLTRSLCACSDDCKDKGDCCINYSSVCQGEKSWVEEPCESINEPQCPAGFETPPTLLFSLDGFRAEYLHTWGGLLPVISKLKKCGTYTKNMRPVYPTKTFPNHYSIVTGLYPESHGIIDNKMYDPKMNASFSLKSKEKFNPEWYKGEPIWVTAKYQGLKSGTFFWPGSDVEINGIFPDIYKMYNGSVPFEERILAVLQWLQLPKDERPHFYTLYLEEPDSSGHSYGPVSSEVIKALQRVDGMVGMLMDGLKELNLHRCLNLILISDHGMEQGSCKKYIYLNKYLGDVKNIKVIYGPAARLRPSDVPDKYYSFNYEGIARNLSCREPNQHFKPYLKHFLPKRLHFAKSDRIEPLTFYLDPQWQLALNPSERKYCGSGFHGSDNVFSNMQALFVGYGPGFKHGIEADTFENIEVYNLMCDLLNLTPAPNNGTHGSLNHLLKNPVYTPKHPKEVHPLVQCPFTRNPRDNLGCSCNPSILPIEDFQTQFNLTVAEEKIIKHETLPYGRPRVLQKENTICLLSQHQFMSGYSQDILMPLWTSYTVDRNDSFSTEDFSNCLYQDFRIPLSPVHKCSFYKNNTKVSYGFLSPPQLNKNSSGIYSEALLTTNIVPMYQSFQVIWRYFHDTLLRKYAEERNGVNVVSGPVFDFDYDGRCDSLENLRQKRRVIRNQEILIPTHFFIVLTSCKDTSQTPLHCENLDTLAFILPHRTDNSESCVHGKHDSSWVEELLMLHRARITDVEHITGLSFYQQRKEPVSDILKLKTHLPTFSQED
TEST_PROTOCOL: Inhibition of human NPP1, 100 μM p-Nph-5′-TMP as substrate (Tables 5, 6)
CONDITIONS: read-out: Ki ± SD (μM), Human NPP1; 100 μM p-Nph-5′-TMP as a substrate

# count of solved cases: 3
Nc1ncnc2c1ncn2[C@@H]1O[C@H](COS(=O)(=O)CS(=O)(=O)O)[C@@H](O)[C@H]1O > 10 µM
Nc1ncnc2c1ncn2COCCOP(=O)(O)C(Cl)(Cl)P(=O)(O)O > 10 µM
Nc1ncnc2c1ncn2COCCOP(O)(=S)OCCOCn1cnc2c(N)ncnc21 > 10 µM

Continue with the next compound.
Data request: Find Ki for Nc1ncnc2c1ncn2COCCOP(=O)(O)CP(=O)(O)O on NPP1 (Homo sapiens, UniProt P22413) and write it down.
Data returned: 16.3 µM

###

TEST_SYSTEM: NPP1 (Homo sapiens)
TEST_PROTOCOL: Inhibition of human NPP1, 100 μM ATP as substrate (FIG. 9, Table 6)
Type: biochemical
CONDITIONS: 100 μM ATP as a substrate; read-out: Ki, human NPP1
Description: Each experiment was performed in triplicates;
MEASUREMENT_KIND: Ki
Numeric answer plus unit only.

Data request: Output measured Ki for this item: Nc1ncnc2c1ncn2COCCOP(=O)(O)CP(=O)(O)O [Analogue 22]
Data returned: 9.6 µM

###

TEST_SYSTEM: P2Y6R (Homo sapiens, UniProt Q15077)
Sequence (Q15077 whole entry): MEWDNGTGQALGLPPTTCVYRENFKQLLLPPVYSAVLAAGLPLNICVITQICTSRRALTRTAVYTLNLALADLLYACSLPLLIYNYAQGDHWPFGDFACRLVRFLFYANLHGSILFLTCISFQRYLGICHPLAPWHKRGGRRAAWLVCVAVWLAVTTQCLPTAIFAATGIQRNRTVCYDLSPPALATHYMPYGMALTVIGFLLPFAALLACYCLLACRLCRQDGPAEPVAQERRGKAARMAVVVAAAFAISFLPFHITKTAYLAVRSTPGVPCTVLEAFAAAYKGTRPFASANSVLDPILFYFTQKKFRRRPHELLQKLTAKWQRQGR
TEST_PROTOCOL: Calcium mobilization in 1321N1 astrocytoma cells expressing human P2Y6R
Assay type: cell-based
Parameters: expressed in transfected cells; host or cells: 1321N1 astrocytoma cells (stably transfected)
MEASUREMENT_KIND: % activation at 10 μM, P2Y6 (%)
Answers are plain numbers, in %.

COMPOUND	TEST_SYSTEM	READOUT_VALUE
Nc1ncnc2c1ncn2COCCOP(=S)(S)OP(=O)(O)CP(=O)(O)O (stereo not shown) [compound 108]	P2Y6R (Homo sapiens, UniProt Q15077)	−8

// for each compound below, give its % activation at 10 μM, P2Y6
1. Nc1ncnc2c1ncn2COCCOP(=S)(S)OP(=O)(O)O (stereo not shown) [compound 106]
2. Nc1ncnc2c1ncn2COCCOP(=S)(S)OP(=O)(O)OP(=O)(O)O (stereo not shown) [compound 107]
3. Nc1ncnc2c1ncn2COCCOP(=S)(S)OP(=O)(O)C(Cl)(Cl)P(=O)(O)O (stereo not shown) [compound 109]

Data returned:
1. −2
2. −5
3. 2

###

Could you please report measured inhibition at 10 µM for the items listed next?
TEST_SYSTEM: NPP1 (Homo sapiens)
TEST_PROTOCOL: Inhibition of human NPP1, 100 μM ATP as substrate (FIG. 9, Table 6)
Assay type: biochemical
CONDITIONS: 10 μM; ATP (100 μM) as a substrate; n = 3; read-out: % inhibition ± SEM at 10 μM, human NPP1
Give bare numbers, in %.

// for each molecule below, give its inhibition at 10 µM
1. Nc1ncnc2c1ncn2COCCOP(=S)(S)OP(=O)(O)OP(=O)(O)O (stereo not shown)
2. Nc1ncnc2c1ncn2COCCOP(=S)(S)OP(=O)(O)O (stereo not shown)
3. Nc1ncnc2c1ncn2COCCOP(=S)(S)OP(=O)(O)C(Cl)(Cl)P(=O)(O)O (stereo not shown)
4. Nc1ncnc2c1ncn2COCCOP(=S)(S)OP(=O)(O)CP(=O)(O)O (stereo not shown)

Data returned:
1: 66; 2: 68; 3: 37; 4: 16

###

TEST_SYSTEM: human P2Y4R (Homo sapiens, UniProt P51582)
Construct: expressed in transfected cells; host or cells: 1321N1 astrocytoma cells
Sequence (P51582 whole entry): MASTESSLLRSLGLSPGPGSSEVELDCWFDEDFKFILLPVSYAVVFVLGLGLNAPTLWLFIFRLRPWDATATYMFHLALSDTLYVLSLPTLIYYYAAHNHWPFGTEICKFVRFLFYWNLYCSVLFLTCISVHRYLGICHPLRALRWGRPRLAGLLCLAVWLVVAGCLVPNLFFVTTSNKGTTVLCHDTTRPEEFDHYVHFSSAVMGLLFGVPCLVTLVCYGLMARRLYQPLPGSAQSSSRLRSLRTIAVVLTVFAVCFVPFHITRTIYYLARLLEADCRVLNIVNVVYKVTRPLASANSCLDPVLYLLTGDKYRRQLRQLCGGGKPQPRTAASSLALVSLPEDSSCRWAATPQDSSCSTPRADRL
TEST_PROTOCOL: Calcium mobilization in 1321N1 astrocytoma cells expressing human P2Y4R
Format: cell-based
Could you please report measured % activation at 10 μM, P2Y4 for the items listed next?
Answers are plain numbers, in %.

MOLECULE	% activation at 10 μM, P2Y4 (%)
Nc1ncnc2c1ncn2COCCOP(=S)(S)OP(=O)(O)CP(=O)(O)O (stereo not shown)	−2
Nc1ncnc2c1ncn2COCCOP(=S)(S)OP(=O)(O)O (stereo not shown)	0

// for each molecule below, give its % activation at 10 μM, P2Y4
1. Nc1ncnc2c1ncn2COCCOP(=S)(S)OP(=O)(O)OP(=O)(O)O (stereo not shown)
2. Nc1ncnc2c1ncn2COCCOP(=S)(S)OP(=O)(O)C(Cl)(Cl)P(=O)(O)O (stereo not shown)

Data returned:
1: −2; 2: 0

###

TEST_SYSTEM: human P2Y1R (Homo sapiens)
Construct: expressed in transfected cells; host or cells: 1321N1 astrocytoma cells
Sequence (P47900 whole entry): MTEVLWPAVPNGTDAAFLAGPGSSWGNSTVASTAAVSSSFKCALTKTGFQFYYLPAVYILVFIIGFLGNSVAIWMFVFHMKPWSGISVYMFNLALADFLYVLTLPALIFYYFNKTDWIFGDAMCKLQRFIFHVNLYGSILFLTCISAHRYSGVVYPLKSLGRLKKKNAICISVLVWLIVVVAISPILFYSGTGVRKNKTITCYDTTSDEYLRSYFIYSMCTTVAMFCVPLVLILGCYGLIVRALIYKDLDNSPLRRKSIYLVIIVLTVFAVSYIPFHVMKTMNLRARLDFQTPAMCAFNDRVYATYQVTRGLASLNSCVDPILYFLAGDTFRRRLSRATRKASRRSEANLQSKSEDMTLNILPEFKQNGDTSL
TEST_PROTOCOL: Calcium mobilization in 1321N1 astrocytoma cells expressing human P2Y1R
Format: cell-based
Could you please report measured % activation at 10 μM, P2Y1 for the items listed next?
Answers are plain numbers, in %.

# count of solved cases: 3
COMPOUND	TEST_SYSTEM	% activation at 10 μM, P2Y1 [%]
Nc1ncnc2c1ncn2COCCOP(=S)(S)OP(=O)(O)OP(=O)(O)O (stereo not shown)	human P2Y1R (Homo sapiens)	−1
Nc1ncnc2c1ncn2COCCOP(=S)(S)OP(=O)(O)C(Cl)(Cl)P(=O)(O)O (stereo not shown)	human P2Y1R (Homo sapiens)	−2
Nc1ncnc2c1ncn2COCCOP(=S)(S)OP(=O)(O)O (stereo not shown)	human P2Y1R (Homo sapiens)	2

Continue with the next compound.
Data request: Output measured % activation at 10 μM, P2Y1 for this item: Nc1ncnc2c1ncn2COCCOP(=S)(S)OP(=O)(O)CP(=O)(O)O (stereo not shown)
Data returned: 0

###

Could you please report measured IC50 for the items listed next?
TEST_SYSTEM: NPP1 (Homo sapiens, UniProt P22413)
TEST_PROTOCOL: Inhibition of human NPP1, pNP-TMP as substrate (analogues 9-12)
Type: biochemical
CONDITIONS: pNP-TMP as a substrate; mean±SEM

# count of solved cases: 2
COMPOUND	READOUT_VALUE
O=c1ccn([C@@H]2O[C@H](COP(=S)(S)OP(=O)(O)OP(=O)(O)OP(=S)(S)OC[C@H]3O[C@@H](n4ccc(=O)[nH]c4=O)[C@H](O)[C@@H]3O)[C@@H](O)[C@H]2O)c(=O)[nH]1 (stereo partly drawn)	0.125 µM
O=c1ccn([C@@H]2O[C@H](COP(=S)(S)OP(=O)(O)CP(=O)(O)O)[C@@H](O)[C@H]2O)c(=O)[nH]1 (stereo partly drawn)	4.3 µM

Continue with the next compound.
Data request: Output measured IC50 for this item: O=c1ccn([C@@H]2O[C@H](COP(=S)(S)OP(=O)(O)OP(=O)(O)O)[C@@H](O)[C@H]2O)c(=O)[nH]1 (stereo partly drawn)
Data returned: 1.2 µM

###

TEST_SYSTEM: Human CD39 (NTPDase1) (Homo sapiens)
Sequence (P49961 whole entry): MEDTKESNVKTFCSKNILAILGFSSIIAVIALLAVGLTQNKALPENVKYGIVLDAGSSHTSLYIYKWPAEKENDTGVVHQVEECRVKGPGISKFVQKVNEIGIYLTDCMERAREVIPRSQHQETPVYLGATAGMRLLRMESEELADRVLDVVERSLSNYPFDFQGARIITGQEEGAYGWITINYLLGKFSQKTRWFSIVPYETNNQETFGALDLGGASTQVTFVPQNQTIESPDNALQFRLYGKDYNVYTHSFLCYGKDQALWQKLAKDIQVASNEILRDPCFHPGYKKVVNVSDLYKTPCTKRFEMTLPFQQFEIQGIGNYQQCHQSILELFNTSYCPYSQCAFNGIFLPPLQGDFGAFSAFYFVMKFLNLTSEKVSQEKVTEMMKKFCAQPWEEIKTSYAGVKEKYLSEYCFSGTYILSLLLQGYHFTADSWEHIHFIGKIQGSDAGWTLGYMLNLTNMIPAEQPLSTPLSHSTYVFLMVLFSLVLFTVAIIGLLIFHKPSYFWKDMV
TEST_PROTOCOL: Inhibition of human CD39 (NTPDase1), 100 μM ADP as substrate
Type: biochemical
CONDITIONS: 10 μM; 100 μM ADP as a substrate; inactive = no inhibition at 10 μM
MEASUREMENT_KIND: % inhibition ± SD at 10 μM, Human CD39 (NTPDase1)

# count of solved cases: 6
COMPOUND	READOUT_VALUE
Nc1ncnc2c1ncn2[C@@H]1O[C@H](COP(=O)(O)CP(=O)(O)O)[C@@H](O)[C@H]1O [AOPCP, reference compound]	12 ± 5%
Nc1ncnc2c1ncn2[C@@H]1O[C@H](COS(=O)(=O)CS(=O)(=O)O)[C@@H](O)[C@H]1O	inactived
Nc1ncnc2c1ncn2COCCOP(=O)(O)O	inactived
Nc1ncnc2c1ncn2COCCOP(O)(=S)OCCOCn1cnc2c(N)ncnc21	15 ± 2%
Nc1ncnc2c1ncn2[C@@H]1O[C@H](COP(=O)(O)CS(=O)(=O)O)[C@@H](O)[C@H]1O	inactived
Nc1ncnc2c1ncn2COCCOP(=O)(O)C(Cl)(Cl)P(=O)(O)O	24 ± 3%

Continue with the next compound.
Data request: Output measured % inhibition ± SD at 10 μM, Human CD39 (NTPDase1) for this item: Nc1ncnc2c1ncn2COCCOP(=O)(O)CP(=O)(O)O
Data returned: 22 ± 2%

###

TEST_SYSTEM: NPP1 (Homo sapiens)
TEST_PROTOCOL: Inhibition of human NPP1, 100 μM p-Nph-5′-TMP as substrate (Tables 5, 6)
Could you please report measured pKi for the items listed next?
Numbers only, as −log10 of the molar value.

# count of solved cases: 3
MOLECULE	pKi
Nc1ncnc2c1ncn2COCCOP(=S)(S)OP(=O)(O)CP(=O)(O)O (centres unmarked) [compound 108]	5.67
Nc1ncnc2c1ncn2COCCOP(=S)(S)OP(=O)(O)OP(=O)(O)O (centres unmarked) [compound 107]	5.70
Nc1ncnc2c1ncn2COCCOP(=S)(S)OP(=O)(O)O (centres unmarked) [compound 106]	5.74

Data request: Output measured pKi for this item: Nc1ncnc2c1ncn2COCCOP(=S)(S)OP(=O)(O)C(Cl)(Cl)P(=O)(O)O (centres unmarked) [compound 109]
Data returned: 6.16
